- System Under Test: p38α (Homo sapiens)
- Construct: p38 MAP Kinases are recombinant human full-length proteins with an amino-terminal GST fusion; GST (N); purchased Upstate (Charlottesville, Va.); host or cells: E. coli
- Sequence (Q16539 whole entry, the tested form may be a part): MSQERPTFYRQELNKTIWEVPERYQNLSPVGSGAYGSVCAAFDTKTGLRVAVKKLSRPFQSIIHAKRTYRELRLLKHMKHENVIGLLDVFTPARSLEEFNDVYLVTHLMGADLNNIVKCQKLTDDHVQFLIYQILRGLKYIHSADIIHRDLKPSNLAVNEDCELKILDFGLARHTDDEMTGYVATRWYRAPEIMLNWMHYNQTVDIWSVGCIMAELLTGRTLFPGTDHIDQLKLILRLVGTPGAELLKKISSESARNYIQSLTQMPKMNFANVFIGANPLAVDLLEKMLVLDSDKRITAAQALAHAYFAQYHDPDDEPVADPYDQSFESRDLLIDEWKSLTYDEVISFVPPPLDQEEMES
- Test: p38 MAP Kinase assay, ATF2 phosphorylation (ELISA)
- Format: biochemical
- Experimental Context: 40 μM ATP
Measured Attribute: IC50 (µM)
Give bare numbers, in µM.

{"Compound": "CC(C)[C@@H](CO)Nc1nccc(-c2c(-c3ccc(F)c(F)c3)nc3sccn23)n1 [CCVII]", "Unit Spec": "µM", "IC50": 0.191}
{"Compound": "COc1nccc(-c2c(-c3ccc(F)cc3)nc3sccn23)n1", "Unit Spec": "µM", "IC50": 0.286}
{"Compound": "Fc1ccc(-c2nc3occn3c2-c2ccnc(NCc3ccccn3)n2)cc1", "Unit Spec": "µM", "IC50": 0.074}
{"Compound": "C[C@H](CO)Nc1nccc(-c2c(-c3ccc(F)cc3)nc3occn23)n1", "Unit Spec": "µM", "IC50": 0.00309}
{"Compound": "OC[C@@H](Nc1nccc(-c2c(-c3ccc(F)cc3)nc3occn23)n1)[C@H](O)c1ccccc1", "Unit Spec": "µM", "IC50": 0.185}
{"Compound": "Fc1ccc(-c2nc3occn3c2-c2ccnc(N[C@H]3CN4CCC3CC4)n2)c(Cl)c1", "Unit Spec": "µM", "IC50": 0.0097}

I'm hoping you can list IC50 for every compound here, please.
1. CC(C)(Nc1nccc(-c2c(-c3ccc(F)cc3)nc3sccn23)n1)C(O)c1ccccc1 (stereo not drawn)
2. Cc1ccccc1-c1nc2occn2c1-c1ccnc(NCC(C)(C)CN(C)C)n1
3. OC(CNc1nccc(-c2c(-c3ccc(F)cc3)nc3occn23)n1)c1ccccc1 (stereo not drawn) [LVII]
4. CC(C)(Nc1nccc(-c2c(-c3ccc(F)cc3)nc3occn23)n1)C(O)c1ccccc1 (stereo not drawn)
5. COc1cccc(-c2nc3sccn3c2-c2ccnc(SC)n2)c1
6. COc1ccc(CNc2nccc(-c3c(-c4ccccc4)nc4sccn34)n2)cc1

1: 0.03; 2: 0.0522; 3: 0.00896; 4: 0.0285; 5: 3.39; 6: 0.0814

I'm hoping you can list IC50 for every compound here, please.
1. Fc1ccc(-c2nc3occn3c2-c2ccnc(NC3CCNCC3)n2)c(F)c1
2. Cc1csc2nc(-c3ccc(F)cc3)c(-c3ccnc(N[C@H](CO)C(C)C)n3)n12
3. CC[C@@H](CO)Nc1nccc(-c2c(-c3ccc(F)cc3)nc3occn23)n1
4. CC(C)[C@@H](Nc1nccc(-c2c(-c3ccc(F)cc3)nc3sccn23)n1)C(=O)OC(C)(C)C
5. Fc1ccc(-c2nc3sccn3c2-c2ccnc(OCC3CC3)n2)cc1
6. CCOCCCNc1nccc(-c2c(-c3ccc(F)cc3)nc3occn23)n1

1. 0.0033
2. 3.19
3. 0.0037
4. 0.0814
5. 0.256
6. 0.00156
